This section presents variants with their documented abundance fitness values.
B1: Pituitary-specific positive transcription factor 1, residues 130 to 198; numbered along this chain, P28069 (parent)
chain: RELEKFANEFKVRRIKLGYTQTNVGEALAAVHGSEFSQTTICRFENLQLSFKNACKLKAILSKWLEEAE

variants of: B1; test: abundance fitness (aPCA) (normalised: wild type 0, dead -1); higher = more abundant; growth selection in yeast, the domain comes from the species named; settings: Homo sapiens

Consider the reported abundance fitness for these variants:
[
  {
    "MUTANT ID": "E26V",
    "RESULT": -0.461
  },
  {
    "MUTANT ID": "K63G",
    "RESULT": -0.153
  }
]

Problem: Item under review: `T39K` . Reported abundance fitness?
Solution: 0.052
